Each entry below lists one item and its recorded ΔG value.
target: H. pylori HsrA response regulator (Helicobacter pylori); test: biochemical; format: binding; details: ITC, 25 °C, pH 8; absolute error 0.2 kcal/mol
Sequence (O25684 entry or part of it): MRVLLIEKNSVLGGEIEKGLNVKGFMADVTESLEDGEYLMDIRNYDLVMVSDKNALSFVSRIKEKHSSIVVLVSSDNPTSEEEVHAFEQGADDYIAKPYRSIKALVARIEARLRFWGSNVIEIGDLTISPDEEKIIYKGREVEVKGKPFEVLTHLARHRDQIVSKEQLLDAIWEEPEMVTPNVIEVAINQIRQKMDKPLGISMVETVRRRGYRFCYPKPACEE
Reply numerically in kcal/mol, unit not repeated.

Reference set (4 entries):
COC(=O)C1=C(C)NC(C)=C(C(=O)OCCN(C)Cc2ccccc2)C1c1cccc([N+](=O)[O-])c1 (centres unmarked)    -7.5
CCOC(=O)C1=C(C)NC(C)=C(C(=O)OC)C1c1cccc([N+](=O)[O-])c1 (centres unmarked)    -6.9
COC(=O)C1=C(C)NC(C)=C(C(=O)OCC(C)C)C1c1ccccc1[N+](=O)[O-] (centres unmarked)    -6.8
COC(=O)C1=C(C)NC(C)=C(C(=O)OC(C)(C)CN(C)CCC(c2ccccc2)c2ccccc2)C1c1cccc([N+](=O)[O-])c1 (centres unmarked)    -6.4

Looking up COCCOC(=O)C1=C(C)NC(C)=C(C(=O)OC(C)C)C1c1cccc([N+](=O)[O-])c1 (centres unmarked) , I see its ΔG listed as -7.3

----------
target: UniProt:O25684; assay: biochemical; assay type: binding; conditions: ITC, 25 °C, pH 8; absolute error 0.4 kcal/mol
Each entry below lists one item and its recorded ΔH value.
Reply numerically in kcal/mol, unit not repeated.

Reference set (4 entries):
CCOC(=O)C1=C(C)NC(C)=C(C(=O)OC)C1c1cccc([N+](=O)[O-])c1 (centres unmarked)    -2.6
COC(=O)C1=C(C)NC(C)=C(C(=O)OC(C)(C)CN(C)CCC(c2ccccc2)c2ccccc2)C1c1cccc([N+](=O)[O-])c1 (centres unmarked)    -4.8
COC(=O)C1=C(C)NC(C)=C(C(=O)OCCN(C)Cc2ccccc2)C1c1cccc([N+](=O)[O-])c1 (centres unmarked)    -2.0
COC(=O)C1=C(C)NC(C)=C(C(=O)OCC(C)C)C1c1ccccc1[N+](=O)[O-] (centres unmarked)    -2.2

Please look at the following compound next.
Looking up COCCOC(=O)C1=C(C)NC(C)=C(C(=O)OC(C)C)C1c1cccc([N+](=O)[O-])c1 (centres unmarked) , I see its ΔH listed as -2.1

----------
tested on: H. pylori ATCC 700392; assay: MIC/MBC by broth microdilution, strain ATCC 700392; format: cell-based; settings: Helicobacter pylori, ATCC700392; ATCC 700392
Each entry below lists one item and its recorded MBC value.
Reply numerically in µg/mL, unit not repeated.

Reference set (6 entries):
COC(=O)C1=C(C)NC(C)=C(C(=O)OCCN(C)Cc2ccccc2)C1c1cccc([N+](=O)[O-])c1 (centres unmarked)    8
CCOC(=O)C1=C(C)NC(C)=C(C(=O)OC)C1c1cccc([N+](=O)[O-])c1 (centres unmarked)    8
COC(=O)C1=C(C)NC(C)=C(C(=O)OC)C1c1ccccc1[N+](=O)[O-]    8
COC(=O)C1=C(C)NC(C)=C(C(=O)OC(C)(C)CN(C)CCC(c2ccccc2)c2ccccc2)C1c1cccc([N+](=O)[O-])c1 (centres unmarked)    8
Cc1ncc([N+](=O)[O-])n1CCO    2
COC(=O)C1=C(C)NC(C)=C(C(=O)OCC(C)C)C1c1ccccc1[N+](=O)[O-] (centres unmarked)    4

Please look at the following compound next.
Item: COCCOC(=O)C1=C(C)NC(C)=C(C(=O)OC(C)C)C1c1cccc([N+](=O)[O-])c1 (centres unmarked) | System: H. pylori ATCC 700392 | MBC: 8
